Data origin: patent US20250171438A1

system: human PAH with the R408W mutation (Homo sapiens, UniProt P00439, R408W)
Construct: expressed in transfected cells
Sequence (P00439 whole entry R408W): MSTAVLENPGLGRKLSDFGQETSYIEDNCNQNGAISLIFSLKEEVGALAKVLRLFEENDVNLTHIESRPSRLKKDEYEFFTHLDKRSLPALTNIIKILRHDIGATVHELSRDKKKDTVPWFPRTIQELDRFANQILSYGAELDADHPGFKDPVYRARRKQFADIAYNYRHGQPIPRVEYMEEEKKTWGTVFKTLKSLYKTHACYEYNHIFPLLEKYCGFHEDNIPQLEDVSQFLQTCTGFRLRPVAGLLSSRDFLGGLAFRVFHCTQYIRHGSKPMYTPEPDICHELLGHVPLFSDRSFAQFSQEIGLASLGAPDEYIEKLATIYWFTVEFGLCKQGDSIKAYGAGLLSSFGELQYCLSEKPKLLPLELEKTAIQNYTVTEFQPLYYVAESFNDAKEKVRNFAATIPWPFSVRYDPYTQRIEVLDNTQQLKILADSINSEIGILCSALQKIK
test-name: Cell Based Phenylalanine Flux Assay
settings: A375 cells expressing human R408W PAH; 24 hrs compound incubation; 13C-Tyrosine by LC-MS; average where tested multiple times; read-out: AC50
assay-readout: AC50

Worked examples, 8 compounds total:
- compound: "Cn1cc(-c2ncc(C(=O)N3CCc4[nH]cnc4[C@H]3c3nc4ccccc4s3)s2)cn1"
  AC50: "< 0.5 µM"
- compound: "CC(O)c1nc(Cl)c(C(=O)N2CCc3[nH]cnc3[C@H]2c2nc3c(F)cccc3s2)o1 (single isomer, unassigned) [Example 2079]"
  AC50: "< 0.5 µM"
- compound: "O=C(CC1CC1)N1CCc2[nH]cnc2[C@H]1c1nc2cc(F)ccc2s1"
  AC50: "0.5 to 1 µM"
- compound: "CC(C)(F)c1nnc(C(=O)N2CCc3[nH]cnc3[C@H]2c2nc3ccccc3s2)o1"
  AC50: "< 0.5 µM"
- compound: "CC(C)(O)c1nc(Cl)c(C(=O)N2CCc3[nH]cnc3[C@@H]2c2nc3c(F)cccc3s2)o1"
  AC50: "1 to 5 µM"
- compound: "CC(C)(O)c1ncc(C(=O)N2CCc3[nH]cnc3[C@@H]2c2nc3c(F)cccc3s2)s1"
  AC50: "1 to 5 µM"
- compound: "O=C(c1nnc(-c2cnn(S(=O)(=O)C3CC3)c2)o1)N1CCc2[nH]cnc2[C@H]1c1nc2ccccc2s1"
  AC50: "0.5 to 1 µM"
- compound: "O=C(c1ccnn1C(F)F)N1CCc2[nH]cnc2[C@H]1c1nc2c(F)cccc2s1"
  AC50: "< 0.5 µM"

Now turn to the next compound.
I looked up O=C(c1cnn2ccc(Cl)cc12)N1CCc2[nH]cnc2[C@H]1c1nc2ccccc2s1 and its AC50 for human PAH with the R408W mutation (Homo sapiens, UniProt P00439, R408W) was < 0.5 µM

---

Reported AC50 values for the following compounds.
system: human PAH with the R408W mutation (Homo sapiens, UniProt P00439, R408W)
Construct: expressed in transfected cells
test-name: Cell Based Phenylalanine Flux Assay
settings: A375 cells expressing human R408W PAH; 24 hrs compound incubation; 13C-Tyrosine by LC-MS; average where tested multiple times; read-out: AC50

Worked examples, 3 compounds total:
- compound: "O=C(c1cnc(-c2ccc(C(F)(F)F)cn2)s1)N1CCc2[nH]cnc2[C@@H]1c1nc2ccccc2s1"
  system: "human PAH with the R408W mutation (Homo sapiens, UniProt P00439, R408W)"
  test-result: "1000 to 5000 nM"
- compound: "CN(C)CCc1nc(C(F)(F)F)c(C(=O)N2CCCc3[nH]cnc3[C@H]2c2nc3ccccc3s2)o1 (single isomer, unassigned)"
  system: "human PAH with the R408W mutation (Homo sapiens, UniProt P00439, R408W)"
  test-result: "500 to 1000 nM"
- compound: "O=C(c1cnc(Cc2ccccc2)s1)N1CCc2[nH]cnc2[C@H]1c1nc2ccccc2s1"
  system: "human PAH with the R408W mutation (Homo sapiens, UniProt P00439, R408W)"
  test-result: "1000 to 5000 nM"

I looked up CN(C)CCc1ccc2c(C(=O)N3CCc4[nH]cnc4[C@H]3c3nc4ccccc4s3)cnn2c1 and its AC50 for human PAH with the R408W mutation (Homo sapiens, UniProt P00439, R408W) was < 500 nM

I looked up O=C(c1cnn2cc(Cl)ccc12)N1CCc2[nH]cnc2[C@@H]1c1nc2ccccc2s1 and its AC50 for human PAH with the R408W mutation (Homo sapiens, UniProt P00439, R408W) was > 5000 nM

I looked up O=C(c1cc2cccnn2c1)N1CCc2[nH]cnc2[C@@H]1c1nc2ccccc2s1 and its AC50 for human PAH with the R408W mutation (Homo sapiens, UniProt P00439, R408W) was > 5000 nM

---

system: human PAH with the R408W mutation (Homo sapiens, UniProt P00439, R408W)
Construct: expressed in transfected cells
test-name: Cell Based Phenylalanine Flux Assay
settings: A375 cells expressing human R408W PAH; 24 hrs compound incubation; 13C-Tyrosine by LC-MS; average where tested multiple times; read-out: AC50
Reported AC50 values for the following compounds.

- compound: "CN1CCN(c2nc(C(F)(F)F)c(C(=O)N3CCc4[nH]cnc4[C@@H]3c3nc4c(F)cccc4s3)o2)CC1 [Example 1624]"
  AC50: "< 500 nM"
- compound: "O=C(c1cnn2ccccc12)N1CCc2[nH]cnc2[C@H]1c1nc2cccc(F)c2s1 [Example 1109]"
  AC50: "500 to 1000 nM"
- compound: "O=C(c1cnn2ccccc12)N1CCc2[nH]cnc2[C@H]1c1nc2c(Cl)cccc2s1 [Example 1221]"
  AC50: "< 500 nM"
- compound: "O=C(c1cnn(C(F)F)c1)N1CCc2[nH]cnc2[C@@H]1c1nc2ccccc2s1 [Example 1410]"
  AC50: "> 5000 nM"
- compound: "O=C(c1nnc(-c2ccc(F)c(F)c2)o1)N1CCc2[nH]cnc2[C@H]1c1nc2ccccc2s1 [Example 1801]"
  AC50: "< 500 nM"
- compound: "O=C(N1CCc2[nH]cnc2[C@@H]1c1nc2ccccc2s1)C1(CF)CC1 [Example 1256]"
  AC50: "> 5000 nM"

So, O=C(c1cnc(-c2ccccn2)o1)N1CC2(CC2)c2[nH]cnc2[C@H]1c1nc2ccccc2s1 [Example 1653] ? Its AC50 was 500 to 1000 nM

So, O=C(c1nnc(-c2ncccc2F)o1)N1CCc2[nH]cnc2[C@H]1c1nc2c(F)cccc2s1 [Example 1902] ? Its AC50 was < 500 nM

---

system: human PAH with the R408W mutation (Homo sapiens, UniProt P00439, R408W)
Construct: expressed in transfected cells
test-name: Cell Based Phenylalanine Flux Assay
settings: A375 cells expressing human R408W PAH; 24 hrs with compound; 13C-Tyrosine by LC-MS; average where tested multiple times; read-out: AC50
assay-readout: AC50

Worked examples, 4 compounds total:
- compound: "O=C(c1ccno1)N1CCc2[nH]cnc2[C@H]1c1nc2ccccc2[nH]1"
  system: "human PAH with the R408W mutation (Homo sapiens, UniProt P00439, R408W)"
  AC50: "1 to 5 µM"
- compound: "Cn1nc(N)cc1C(=O)N1CCc2[nH]cnc2C1c1nc2ccccc2s1 (centres unmarked)"
  system: "human PAH with the R408W mutation (Homo sapiens, UniProt P00439, R408W)"
  AC50: "1 to 5 µM"
- compound: "O=C(c1ccc2ncsc2c1)N1CCc2[nH]cnc2C1c1nc2ccccc2[nH]1 (centres unmarked)"
  system: "human PAH with the R408W mutation (Homo sapiens, UniProt P00439, R408W)"
  AC50: "> 5 µM"
- compound: "O=C(c1cc(Cl)n[nH]1)N1CCc2[nH]cnc2C1c1nc2c(F)cccc2s1 (centres unmarked)"
  system: "human PAH with the R408W mutation (Homo sapiens, UniProt P00439, R408W)"
  AC50: "1 to 5 µM"

I looked up CC(C)(O)c1nc(C(=O)N2CCc3[nH]cnc3C2c2nc3ccccc3s2)no1 (centres unmarked) and its AC50 for human PAH with the R408W mutation (Homo sapiens, UniProt P00439, R408W) was 1 to 5 µM

I looked up CC(C)(O)c1cc(C(=O)N2CCc3[nH]cnc3C2c2nc3c(F)cccc3s2)ns1 (centres unmarked) and its AC50 for human PAH with the R408W mutation (Homo sapiens, UniProt P00439, R408W) was 1 to 5 µM

I looked up O=C(c1cnn2cc(C=Cc3ccccc3)ccc12)N1CCc2[nH]cnc2C1c1nc2ccccc2s1 (centres unmarked) and its AC50 for human PAH with the R408W mutation (Homo sapiens, UniProt P00439, R408W) was > 5 µM

I looked up CC(C)(C)CCC(=O)N1CCc2[nH]cnc2C1c1nc2ccc(Cl)cc2[nH]1 (centres unmarked) and its AC50 for human PAH with the R408W mutation (Homo sapiens, UniProt P00439, R408W) was 1 to 5 µM

I looked up O=C(Cc1nccs1)N1CCc2[nH]cnc2C1c1nc2ccc(Br)cc2[nH]1 (centres unmarked) and its AC50 for human PAH with the R408W mutation (Homo sapiens, UniProt P00439, R408W) was 1 to 5 µM

I looked up O=C(c1cnn2c(Br)cccc12)N1CCc2[nH]cnc2C1c1nc2ccc(Cl)cc2[nH]1 (centres unmarked) and its AC50 for human PAH with the R408W mutation (Homo sapiens, UniProt P00439, R408W) was 1 to 5 µM

I looked up Cc1ccc2c(C(=O)N3CCc4[nH]cnc4C3c3nc4ccc(Br)cc4[nH]3)cnn2c1 (centres unmarked) and its AC50 for human PAH with the R408W mutation (Homo sapiens, UniProt P00439, R408W) was > 5 µM

I looked up COc1cccc(C(=O)N2CCc3[nH]cnc3[C@H]2c2nc3ccccc3[nH]2)c1 and its AC50 for human PAH with the R408W mutation (Homo sapiens, UniProt P00439, R408W) was 1 to 5 µM
